experiment: Half life in monkey liver microsomes; type: ADME, Macaca mulatta, microsome; details: rhesus monkey
Attribute measured: half-life (h)
I only need the number, in h, no unit after it.

Please give the measured half-life for this compound: COc1ncc(-c2nc3c(n2C(C)C)[C@H](c2ccc(Cl)cc2C)N(c2cc(Cl)ccc2C)C3=O)c(OC)n1
1.35

====

assay: Tmax in Sprague-Dawley rat at 3 mg/kg, po; type: ADME, organism-based; conditions: in vivo
Attribute measured: Tmax (h)
All answers are understood in h, so give the number only.

Tell me the measured Tmax of COc1ncc(-c2nc3c(n2C(C)C)[C@H](c2ccc(Cl)cc2C)N(c2cc(Cl)ccc2C)C3=O)c(OC)n1 , please.
2

====

experiment: Intrinsic clearance in dog liver microsomes; assay type: ADME, Canis lupus familiaris, microsome
Attribute measured: CLH (µL/min/mg)
Report as a plain number; the unit µL/min/mg is understood.

What does the record list as CLH for COc1ncc(-c2nc3c(n2C(C)C)[C@H](c2ccc(Cl)cc2C)N(c2cc(Cl)ccc2C)C3=O)c(OC)n1 ?
35

====

test system: Rattus norvegicus; experiment: Dose normalized Cmax in Sprague-Dawley rat at 3 mg/kg, po; format: ADME, organism-based; conditions: in vivo
Attribute measured: Cmax/dose

Cmax/dose of COc1ncc(-c2nc3c(n2C(C)C)[C@H](c2ccc(Cl)cc2C)N(c2cc(Cl)ccc2C)C3=O)c(OC)n1 on Rattus norvegicus?
75 nM/(mg/kg)

====

assay: Fraction absorbed of compound by PAMPA; type: ADME
Attribute measured: Fa (%)
Output spec: scalar in %, unitless text.

Entry COc1ncc(-c2nc3c(n2C(C)C)[C@H](c2ccc(Cl)cc2C)N(c2cc(Cl)ccc2C)C3=O)c(OC)n1 : reported Fa = ?
99

====

test: Half life in mouse liver microsomes; assay type: ADME, microsome
Attribute measured: half-life
Report the figure along with its unit, number first.

What value of half-life has been recorded for this entry: COc1ncc(-c2nc3c(n2C(C)C)[C@H](c2ccc(Cl)cc2C)N(c2cc(Cl)ccc2C)C3=O)c(OC)n1
39 min

====

assay: Clearance in Sprague-Dawley rat at 1 mg/kg, iv; type: ADME, organism-based; conditions: in vivo
Attribute measured: clearance (mL/min/kg)
Report only the number, with the unit mL/min/kg understood.

So what does the record say about clearance for COc1ncc(-c2nc3c(n2C(C)C)[C@H](c2ccc(Cl)cc2C)N(c2cc(Cl)ccc2C)C3=O)c(OC)n1 ?
32

====

system: SJSA-1; assay: Antiproliferative activity against human SJSA1 cells after 72 hrs by YO-PRO-1 iodide staining-based assay; format: functional; details: SJSA-1, 72 h
Can you tell me GI50 for the items I'm about to list?
Please state the figure in µM; there is no need to write the unit.

Could you share which GI50 value was measured for COc1ccc(F)cc1-c1nc2c(n1C(C)C)C(c1ccc(Cl)cc1C)N(c1cc(Cl)ccc1C)C2=O (racemic) ?
0.228

Fill in: GI50 of COc1ccc(-c2nc3c(n2C(C)C)C(c2ccc(Cl)cc2C)N(c2cc(Cl)ccc2C)C3=O)c(OC)n1 (racemic) is ___
0.186

Param item = COc1ncc(-c2nc3c(n2C(C)C)[C@H](c2ccc(Cl)cc2C)N(c2cc(Cl)ccc2C)C3=O)c(OC)n1 ; retrieve measured GI50.
0.011

# query: GI50 of entry COc1ncc(-c2nc3c(n2C(C)C)C(c2ccc(Cl)cc2C)N(c2cc(Cl)ccc2C)C3=O)c(OC)n1 (racemic)
0.026

I am curious: what GI50 value has been reported for COc1ccncc1-c1nc2c(n1C(C)C)[C@H](c1ccc(Cl)cc1C)N(c1cc(Cl)ccc1C)C2=O ?
0.345

# lookup: GI50 of COc1cccc(F)c1-c1nc2c(n1C(C)C)C(c1ccc(Cl)cc1C)N(c1cc(Cl)ccc1C)C2=O (racemic)
0.276

GI50 for COc1ncc(-c2nc3c(n2C(C)C)[C@@H](c2ccc(Cl)cc2C)N(c2cc(Cl)ccc2C)C3=O)c(OC)n1 ?
1

Entry COc1ccccc1-c1cc2c(n1C(C)C)C(c1ccc(Cl)cc1C)N(c1cc(Cl)ccc1C)C2=O (stereo not given) : reported GI50 = ?
0.216

Which GI50 reading was recorded for the compound COc1ncncc1-c1nc2c(n1C(C)C)C(c1ccc(Cl)cc1C)N(c1cc(Cl)ccc1C)C2=O (racemic) ?
0.111

====

For each record, write down the corresponding CLH.
experiment: Intrinsic clearance in mouse liver microsomes; assay type: ADME, microsome
Please reply with the bare figure in µL/min/mg and do not write the unit itself.

Give its CLH value. Item: COc1ncc(-c2nc3c(n2C(C)C)[C@H](c2ccc(Cl)cc2C)N(c2cc(Cl)ccc2C)C3=O)c(OC)n1
36

// lookup CLH for COc1ccccc1-n1nc2c(c1C(C)C)[C@H](c1ccc(Cl)cc1C)N(c1cc(Cl)ccc1C)C2=O
495
